# TARGET_SYSTEM: human mGluR5 (Homo sapiens, UniProt P41594)
# Sequence (P41594 21-1180 isoform P41594-2 limits assumed): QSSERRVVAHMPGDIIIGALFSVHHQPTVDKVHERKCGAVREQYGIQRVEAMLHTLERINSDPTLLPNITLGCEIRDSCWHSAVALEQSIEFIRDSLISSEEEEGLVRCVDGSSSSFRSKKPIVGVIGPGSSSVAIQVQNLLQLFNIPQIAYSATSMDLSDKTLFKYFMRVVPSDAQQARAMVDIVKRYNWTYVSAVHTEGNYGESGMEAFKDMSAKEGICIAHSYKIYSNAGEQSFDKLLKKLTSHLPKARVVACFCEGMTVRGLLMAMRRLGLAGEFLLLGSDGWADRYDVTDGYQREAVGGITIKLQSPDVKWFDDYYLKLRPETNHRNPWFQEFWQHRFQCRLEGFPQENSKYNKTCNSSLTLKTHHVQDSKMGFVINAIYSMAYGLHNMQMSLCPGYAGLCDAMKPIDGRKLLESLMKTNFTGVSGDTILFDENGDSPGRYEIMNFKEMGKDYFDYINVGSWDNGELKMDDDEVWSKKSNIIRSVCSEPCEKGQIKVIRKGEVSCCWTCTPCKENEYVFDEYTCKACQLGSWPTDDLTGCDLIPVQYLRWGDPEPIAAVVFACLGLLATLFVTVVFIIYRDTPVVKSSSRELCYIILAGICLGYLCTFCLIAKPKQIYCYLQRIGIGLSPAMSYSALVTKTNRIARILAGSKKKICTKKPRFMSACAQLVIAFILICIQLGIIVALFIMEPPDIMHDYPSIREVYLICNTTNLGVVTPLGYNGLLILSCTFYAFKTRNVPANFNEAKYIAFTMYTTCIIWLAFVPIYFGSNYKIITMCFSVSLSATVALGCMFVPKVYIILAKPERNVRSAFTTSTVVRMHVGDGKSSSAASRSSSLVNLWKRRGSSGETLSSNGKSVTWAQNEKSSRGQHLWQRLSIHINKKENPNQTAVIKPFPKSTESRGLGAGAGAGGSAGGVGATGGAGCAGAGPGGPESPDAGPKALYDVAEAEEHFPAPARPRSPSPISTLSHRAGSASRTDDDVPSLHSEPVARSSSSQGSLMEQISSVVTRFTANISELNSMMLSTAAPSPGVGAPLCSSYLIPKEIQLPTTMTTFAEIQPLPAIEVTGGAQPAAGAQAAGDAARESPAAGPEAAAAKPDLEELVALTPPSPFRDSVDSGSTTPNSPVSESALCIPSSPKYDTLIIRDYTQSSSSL
# METHOD_NOTES: Cell-based functional Ca2+ mobilization assay, potentiation of glutamate EC20 response (H10H cell-line)
# ASSAY_CONDITIONS: H10H cell-line expressing recombinant human mGluR5; in presence of glutamate EC20; normalized to maximal glutamate response
READOUT_KIND: Emax (%)

// solved cases for Emax follow
N#Cc1cccc(C(=O)N2CCc3nc(COc4ccccc4)oc3C2)c1    64.5
Cn1c(C(=O)N2CCc3nc(COc4ccccc4)oc3C2)cc2ccccc21    56
O=C(CC1CC1)N1CCc2nc(COc3ccccc3)oc2C1    58

(I) O=C(c1ccc(Br)o1)N1CCc2nc(COc3ccccc3)oc2C1
(II) O=C(c1ccc2[nH]cnc2c1)N1CCc2nc(COc3ccccc3)oc2C1
Could you kindly indicate whether I or II has the higher Emax value? Mark your selection by writing its label.
I
(I: 61%, II: 14%)

Source of measurements: patent US9090632B2
